# Target Of Assay: human RAF1 (Homo sapiens)
# Sequence (P04049 whole entry): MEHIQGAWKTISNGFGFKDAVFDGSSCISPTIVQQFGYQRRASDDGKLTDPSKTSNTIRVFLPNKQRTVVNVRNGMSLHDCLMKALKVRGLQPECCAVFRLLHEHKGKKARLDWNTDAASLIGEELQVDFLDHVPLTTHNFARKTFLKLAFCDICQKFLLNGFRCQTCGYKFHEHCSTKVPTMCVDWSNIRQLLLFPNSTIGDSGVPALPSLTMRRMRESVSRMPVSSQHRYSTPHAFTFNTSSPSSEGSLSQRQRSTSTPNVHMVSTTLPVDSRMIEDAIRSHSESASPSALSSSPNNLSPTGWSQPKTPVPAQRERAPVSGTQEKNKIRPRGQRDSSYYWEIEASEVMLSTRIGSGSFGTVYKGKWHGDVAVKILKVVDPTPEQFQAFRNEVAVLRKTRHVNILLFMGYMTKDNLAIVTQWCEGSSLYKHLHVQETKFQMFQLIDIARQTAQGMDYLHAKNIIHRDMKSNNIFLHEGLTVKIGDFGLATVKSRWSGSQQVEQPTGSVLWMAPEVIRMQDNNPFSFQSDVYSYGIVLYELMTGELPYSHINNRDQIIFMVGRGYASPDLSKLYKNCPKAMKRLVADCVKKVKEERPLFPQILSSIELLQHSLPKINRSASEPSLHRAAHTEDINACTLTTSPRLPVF
# Assay Details: Protein kinase assay (33P-ATP filter binding), human RAF1, 10-dose IC50
# Reported Conditions: MEK1 (K97R) substrate 3 micromolar, ATP 10 micromolar, read-out: RAF-1 IC50
Documented IC50 across a set of molecules

{"columns": ["Molecule", "IC50"],
 "data": [
  ["Cc1cc(F)c(NC(=O)N2CCCC(C(F)(F)F)C2)cc1-c1cc(OCCO)nc(N2CCOCC2)c1 (racemic) [Example 4]", "< 0.01 µM"],
  ["Cc1ccc(NC(=O)N2CC[C@@H](CC(F)(F)F)C2)cc1-c1cc(OC(C)(C)CO)nc(N2CCOCC2)c1 [Example 232]", "< 0.01 µM"],
  ["Cc1cc(F)c(NC(=O)N2CCOC(C(F)(F)F)C2C)cc1-c1cc(OCCO)nc(N2CCOCC2)c1 (single isomer, unassigned) [Example 112]", "< 0.01 µM"]
]}
